- MEASURED_TARGET: hNurr1_RXRγFL (NURR1/RXRγ heterodimer) (Homo sapiens, UniProt P43354+P48443)
- Sequence (P43354 328-598): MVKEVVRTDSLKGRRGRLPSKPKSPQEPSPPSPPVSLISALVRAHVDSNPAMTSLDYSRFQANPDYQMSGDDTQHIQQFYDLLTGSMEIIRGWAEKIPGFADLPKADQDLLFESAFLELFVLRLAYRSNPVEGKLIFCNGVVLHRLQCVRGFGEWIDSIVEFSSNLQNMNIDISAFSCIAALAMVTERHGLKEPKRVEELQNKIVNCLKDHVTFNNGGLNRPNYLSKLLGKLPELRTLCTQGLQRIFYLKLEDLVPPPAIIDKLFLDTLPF
- Sequence (P48443 whole entry, the tested form may be a part): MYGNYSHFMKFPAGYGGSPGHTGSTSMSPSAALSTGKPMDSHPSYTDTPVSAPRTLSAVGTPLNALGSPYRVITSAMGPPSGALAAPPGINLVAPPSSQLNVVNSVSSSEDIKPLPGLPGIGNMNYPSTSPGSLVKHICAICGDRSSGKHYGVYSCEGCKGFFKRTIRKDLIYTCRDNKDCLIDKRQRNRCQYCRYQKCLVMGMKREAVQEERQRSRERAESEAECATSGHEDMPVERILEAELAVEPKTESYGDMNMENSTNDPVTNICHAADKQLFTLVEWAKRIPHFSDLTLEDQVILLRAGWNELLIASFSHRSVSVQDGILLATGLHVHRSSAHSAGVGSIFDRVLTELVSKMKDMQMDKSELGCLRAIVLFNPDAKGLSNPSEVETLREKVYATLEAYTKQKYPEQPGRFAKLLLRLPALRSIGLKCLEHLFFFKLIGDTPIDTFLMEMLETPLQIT
- RUN_DESCRIPTION: Transactivation assay in Cos-7 cells, NURR-1-Gal4 / RXRγ, luciferase reporter
- COND: Cos-7 cells, overnight incubation
READOUT_NAME: EC50
A bare number is not enough; add the unit after it.

Problem: // query EC50 value for entry `CCc1ccc(S(=O)(=O)n2c(Cc3ccc(C(=O)O)cc3)cc3cc(C(F)(F)F)ccc32)cc1`
Result: 304 nM

Problem: Given `O=C(O)c1ccc(Cc2cc3cc(Cl)ccc3n2S(=O)(=O)c2cccc(Cl)c2)cc1` , state its recorded EC50.
Result: 851 nM

Problem: Find the recorded EC50 belonging to `CC(C)(C)c1cccc(S(=O)(=O)n2c(Cc3ccc(C(=O)O)cc3F)cc3cc(C(F)(F)F)ccc32)c1` and report it.
Result: 91 nM

Problem: I'd like to know its EC50. The compound in question is `O=C(O)c1ccc(F)c(Cc2cc3cc(C(F)(F)F)ccc3n2S(=O)(=O)c2ccc3c(c2)OCCO3)c1`
Result: 804 nM

Problem: I have this compound here, `CC1(C)CCc2ccc(S(=O)(=O)n3c(Cc4ccc(C(=O)O)cc4)cc4cc(Cl)ccc43)cc2O1` , and I need its recorded EC50.
Result: 498 nM

Problem: # get_value(readout='EC50', item= `CCCc1ccc(S(=O)(=O)n2c(Cc3ccc(C(=O)O)cc3)cc3cc(C(F)(F)F)ccc32)cc1` )
Result: 344 nM

Problem: Give the measured EC50 of `O=C(O)c1ccc(Cc2cc3cc(C(F)(F)F)ccc3n2S(=O)(=O)c2ccsc2)cc1` .
Result: 628 nM

----------
- MEASURED_TARGET: hNurr1_RXRγFL (NURR1/RXRγ heterodimer) (Homo sapiens, UniProt P43354+P48443)
- RUN_DESCRIPTION: Transactivation assay in Cos-7 cells, NURR-1-Gal4 / RXRγ, luciferase reporter
- Type: cell-based
- COND: efficacy in % relative to the reference XCT0135908 at 2·10^−5 M (=100%)
- Experimental: First, the capacity of the compounds according to the invention for acting as an activator of the heterodimers formed by the NURR-1 nuclear receptor and the RXR nuclear receptors was measured by an in vitro assay. A transactivation assay was used as a primary screening assay. […] After 24 hours, the culture medium was changed. […] After overnight incubation, luciferase expression was measured after addition of “SteadyGlo” according to the manufacturer's instructions (Promega). […]
Hi there, I'd appreciate the recorded hNurr1_RXRγFL Eff (%) for every entry that follows.
Enter your answer as a number in %; do not include the unit.

Problem: Please report the recorded hNurr1_RXRγFL Eff (%) for CC1(C)COc2ccc(S(=O)(=O)n3c(Cc4ccc(C(=O)O)cc4)cc4cc(Cl)ccc43)cc21 [Example 183] .
Result: 91

Problem: Need hNurr1_RXRγFL Eff (%) of CC(C)c1cccc(S(=O)(=O)n2c(Cc3ccc(C(=O)O)cc3)cc3cc(N4CCCC4)ccc32)c1 [Example 116] , thanks.
Result: 50

Problem: Name the recorded hNurr1_RXRγFL Eff (%) for COC(=O)c1ccc(Cc2cc3cc(Cl)ccc3n2S(=O)(=O)c2ccc3c(c2)C(C)(C)CO3)cc1 [Example 182] .
Result: 85

Problem: Could you share which hNurr1_RXRγFL Eff (%) value was measured for CC(C)c1cccc(S(=O)(=O)n2c(Cc3ccc(C(=O)O)cc3)cc3cc(C(F)(F)F)ccc32)c1 [Example 114] ?
Result: 76
